# Tested on: NCI-H460
# ASSAY: NCI tumour cell line growth inhibition, 48 h
Active and inactive are the calls of the source. Rule as the data show it: active = GI50 up to about 1.1 µM and inactive = higher.
PARAMETER: GI50

Here are 2 compounds together with their reported answers.
# return recorded GI50 for entry COc1cccc(/C=C\c2ccnc3ccccc23)c1
> 10 µM (inactive)

Please list GI50 recorded for the compound CCOC(=O)c1c(-c2ccccc2)[nH]c2ccc(Cl)cc2c1=O
30.3 µM (inactive)

New cases:
Supply measured GI50 of Cc1[nH]c2c(c1C)S(=O)(=O)c1cc3ccccc3nc1N2 in your reply.
18.7 µM (inactive)

###

Entries annotated with measured log10(GI50)
# Test system: HCT-15
# ASSAY: NCI tumour cell line growth inhibition, 48 h
Non-standard residues stand in square brackets, D forms with d. Residues, ends and D or L forms follow the SMILES beside them. *: point of attachment. Bn2Val = CC(C)[C@@H](C(=O)*)N(Cc1ccccc1)Cc1ccccc1; NH(4-Cl-benzyl) = Clc1ccc(CN*)cc1; NMeV = CN[C@H](C(=O)O)C(C)C; dNMeA = CN[C@H](C)C(=O)O
Transform log10 | Measure GI50 | Unit µM

Past entries and their recorded results:
Report log10(GI50) from HCT-15 testing of CNC1=C(C)C(=O)C(O)=C([C@H](C)CCC=C(C)C)C1=O
0.84

Provide HCT-15 log10(GI50) reading for CC(C)[C@H](NC(=O)[C@H](C(C)C)N(Cc1ccccc1)Cc1ccccc1)C(=O)N(C)[C@H](C(=O)N1CCC[C@H]1C(=O)N(C)[C@H](C)C(=O)NCc1ccc(Cl)cc1)C(C)C (Bn2Val-V[NMeV]P[dNMeA]-{NH(4-Cl-benzyl)}) .
0.50

Shifting focus to the compound that follows.
Provide log10(GI50), recorded with HCT-15, of CC1=C(C(=O)OC2CC3CCC2(C)C3(C)C)C2Nc3ccccc3N(C)C2O1 (stereo not given)
0.30
